target: αS fibrils, Site 2 ([^3H]Tg-190b) (Homo sapiens, UniProt P37840); assay: Competition binding assay with Site 2 radioligand [^3H]Tg-190b on αS fibrils; settings: αS fibrils 100 nM, [^3H]Tg-190b 6 nM, 1 h 37 °C; 95% confidence intervals in parentheses in Table 1 (n = 3)
pIC50: −log10 of the molar value.
MEASURED_ENDPOINT: pIC50

{"COMPOUND": "COc1ccc(OCC(=O)Nc2cc(-c3ccccc3)no2)cc1 [Compound 24]", "ASSAYED_TARGET": "αS fibrils, Site 2 ([^3H]Tg-190b) (Homo sapiens, UniProt P37840)", "MEASURED_ENDPOINT": "pIC50", "RESULT_NUMBER": 7.02}
{"COMPOUND": "COc1ccc(OCC(=O)Nc2cc(-c3ccc(F)c(F)c3)no2)cc1 [Compound 39]", "ASSAYED_TARGET": "αS fibrils, Site 2 ([^3H]Tg-190b) (Homo sapiens, UniProt P37840)", "MEASURED_ENDPOINT": "pIC50", "RESULT_NUMBER": 7.02}
{"COMPOUND": "Cc1ccc(OCC(=O)Nc2cc(-c3ccc(F)cc3)no2)cc1C [Compound 6]", "ASSAYED_TARGET": "αS fibrils, Site 2 ([^3H]Tg-190b) (Homo sapiens, UniProt P37840)", "MEASURED_ENDPOINT": "pIC50", "RESULT_NUMBER": 8.02}
{"COMPOUND": "Cc1ccc(OCC(=O)Nc2cc(-c3ccc(F)c(F)c3)no2)cc1C [Compound 40]", "ASSAYED_TARGET": "αS fibrils, Site 2 ([^3H]Tg-190b) (Homo sapiens, UniProt P37840)", "MEASURED_ENDPOINT": "pIC50", "RESULT_NUMBER": 7.71}
{"COMPOUND": "Cc1ccc(N2CCN(c3cnn(-c4ccccc4)c(=O)c3Cl)CC2)cc1C [Compound 2]", "ASSAYED_TARGET": "αS fibrils, Site 2 ([^3H]Tg-190b) (Homo sapiens, UniProt P37840)", "MEASURED_ENDPOINT": "pIC50", "RESULT_NUMBER": 6.31}
{"COMPOUND": "Cc1ccc(OCC(=O)Nc2cc(-c3ccccc3)no2)cc1C [Compound 52]", "ASSAYED_TARGET": "αS fibrils, Site 2 ([^3H]Tg-190b) (Homo sapiens, UniProt P37840)", "MEASURED_ENDPOINT": "pIC50", "RESULT_NUMBER": 7.51}
{"COMPOUND": "COc1ccc(OCC(=O)Nc2cc(-c3ccc(Br)cc3)no2)cc1 [Compound 31]", "ASSAYED_TARGET": "αS fibrils, Site 2 ([^3H]Tg-190b) (Homo sapiens, UniProt P37840)", "MEASURED_ENDPOINT": "pIC50", "RESULT_NUMBER": 7.16}
